Tested on: Fibroblast
Experiment Summary: Incucyte cell viability with human fibroblast; further: filed as whole numbers so only -1 and 0 and 1 occur
Format: toxicity, cell-based
Condition Set: 12 h, 10 µM, compound concentration 10 uM, replicate number 1, timepoint 12 hours
Measurement Kind: Growth Rate

{"columns": ["Compound", "Growth Rate"],
 "data": [
  ["CN1C[C@H](Nc2cnn(C)c(=O)c2Br)C[C@H](c2ccccc2)C1", 1],
  ["CNC(=O)Nc1ccc(-c2nc(N3CC4CCC(C3)O4)c3cnn(C4CCC5(CC4)OCCO5)c3n2)cc1", 0],
  ["CC(C)(O)c1ccccc1CC[C@@H](SCC1(CC(=O)[O-])CC1)c1cccc(/C=C/c2ccc3ccc(Cl)cc3n2)c1.[Na+] [MONTELUKAST SODIUM]", 1],
  ["COc1cc2c(cc1NS(=O)(=O)c1ccc(Br)cc1C)n(C)c(=O)n2C", 1]
]}

Query: Tell me the measured Growth Rate of CCCOc1ccc([C@H]2[C@H](C(=O)O)[C@@H](c3ccc4c(c3)OCO4)CN2CC(=O)Nc2c(CC)cccc2CC)cc1 , please.
Result: 1

Query: Tell me the measured Growth Rate of CNC(=O)c1ccc(Nc2ncc(C(F)(F)F)c(NCc3nccnc3N(C)S(C)(=O)=O)n2)cc1 , please.
Result: 0

Query: Tell me the measured Growth Rate of O=C(O)Cn1c(C(=O)Nc2nc(-c3ccccc3Cl)cs2)cc2ccccc21 , please.
Result: 0

Query: Tell me the measured Growth Rate of COc1cc(C(=O)NS(=O)(=O)c2ccccc2C)ccc1Cc1cn(C)c2ccc(NC(=O)OC3CCCC3)cc12 , please.
Result: 0

Query: Tell me the measured Growth Rate of COc1cc2ncnc(Nc3ccc(F)c(Cl)c3)c2cc1OCCCN1CCOCC1 , please.
Result: 0

---

Quick reference: Population Pyknosed Nuclei (%) of the listed items.
System: U2OS
Experiment Summary: Multiplex assay against U2OS
Format: toxicity, cell-based
Condition Set: human, 12 h, 10 µM, compound concentration 10 uM, replicate 2
Answer format reminder: number followed by unit.

// worked examples, Population Pyknosed Nuclei (%) included
{"columns": ["Compound", "Tested System", "Result"],
 "data": [
  ["COc1ccc(-c2ccc3ncc4c(c3c2)n(-c2ccc(N3CCNCC3)c(C(F)(F)F)c2)c(=O)n4C)cn1.O=C(O)/C=C\\C(=O)O", "U2OS", "19%"],
  ["C=CC(=O)Nc1cccc(Sc2nc(Nc3ccc(N4CCN(C)CC4)cc3)ncc2Cl)c1", "U2OS", "8%"],
  ["CC(C)Oc1ccccc1C(=O)Nc1ccccc1C(=O)Nc1cccc(S(=O)(=O)C(F)(F)F)c1", "U2OS", "10%"],
  ["CC(C)(C)NC[C@H](O)COc1nsnc1N1CCOCC1", "U2OS", "11%"],
  ["Cc1nc(N2CC[C@H](O)C2)ncc1-c1cc(C(F)(F)F)cc2[nH]ncc12", "U2OS", "6%"],
  ["COc1cc2ncn(-c3cc(OCc4ccccc4C(F)(F)F)c(C(N)=O)s3)c2cc1OC [GW843682X]", "U2OS", "11%"]
]}

Query: Tell me the measured Population Pyknosed Nuclei (%) of C=CC(=O)Nc1ccc2[nH]c(=O)n(C3CCN(Cc4ccc(-c5nc6cc[nH]c(=O)c6cc5-c5ccccc5)cc4)CC3)c2c1 , please.
Result: 15%

Query: Tell me the measured Population Pyknosed Nuclei (%) of CC(C)NC(=O)N1CC[C@H](NC2=Nc3cc(F)ccc3N(CC(F)F)c3ccc(Cl)cc32)C1 , please.
Result: 11%

Query: Tell me the measured Population Pyknosed Nuclei (%) of O=C(c1cc2c(cc1F)OC(c1ccc(F)cc1)(c1ccc(Cl)cc1Cl)O2)N1CCOCC1 (configuration not stated) , please.
Result: 10%

Query: Tell me the measured Population Pyknosed Nuclei (%) of Cl.O=C(O)c1cc(-c2ccc(C3CCNCC3)cc2)c2ccc(-c3ccc(C(F)(F)F)cc3)cc2c1 , please.
Result: 21%

Query: Tell me the measured Population Pyknosed Nuclei (%) of C[C@]12CC[C@@H]3c4ccc(O)cc4CC[C@H]3[C@@H]1CC[C@@H]2O , please.
Result: 12%

Attribution: ChEMBL document CHEMBL4689842
